Target: Son of sevenless homolog 1 (Homo sapiens)
Assay: Inhibition of SOS1 in human HeLa cells assessed as reduction in RAS activation pretreated for 30 mins followed by EGF stimulation for 3 mins by G-LISA analysis
Assay type: cell-based
property: pIC50
Lab note — pIC50 values are minus log10 of concentrations in M.

pIC50 measured on COc1cc2nc(C)nc(NC(C)c3ccc(-c4cnc5n4CCC5)s3)c2cc1OC (stereo unspecified) = 5.27

###

Listing of recorded ΔTm by entry.
Biological target: GTPase KRas (Homo sapiens)
Experiment: Stabilization of N-terminal His10-tagged wild-type recombinant human KRAS (1 to 169 residues) expressed in Escherichia coli assessed as change in melting temperature at 100 uM with heating from 25 to 85 degreeC by thermal shift assay

Use the examples below as a reference point.
CNCc1ccccc1-c1csc([C@@H](C)Nc2nc(C)nc3cc(OC)c(OC)cc23)c1 [BAY-293] = 0.23 °C
COc1cc2ncnc(N[C@H](C)c3cccc4ccccc34)c2cc1OC = -1.1 °C
CNCc1ccccc1-c1csc(C(C)Nc2nc(C)nc3cc(OC)c(OC)cc23)c1 (centres undefined) = -0.67 °C

# lookup: CNCc1ccccc1-c1csc([C@H](C)Nc2nc(C)nc3cc(OC)c(OC)cc23)c1 [BAY-294] on GTPase KRas (Homo sapiens), ΔTm = -0.05 °C

###

Molecular target: Son of sevenless homolog 1 (Homo sapiens)
Experiment: Inhibition of SOS1 in human K562 cells assessed as reduction in pERK level incubated for 60 mins by HTRF analysis
Assay type: cell-based
property: IC50 (nM)
State the answer as a number, implicitly in nM.

Record COc1cc2nc(C)nc(NC(C)c3ccc(-c4cnc5n4CCC5)s3)c2cc1OC (stereo unspecified) has Son of sevenless homolog 1 (Homo sapiens) IC50 equal to 1160

###

Biological target: UniProt Q07889
Experiment: Inhibition of N-terminal GST-tagged recombinant human KRAS G12C mutant (1 to 169 residues) expressed in Escherichia coli/N-terminal His10-tagged wild-type recombinant human SOS1 catalytic domain (564 to 1049 residues) expressed in Escherichia coli protein-protein interaction preincubated for 2 mins with KRAS followed by SOS1 addition measured after 60 mins in presence of anti-6His-XL665 by HTRF analysis
Here, each record is paired with measured IC50 data.
Dear colleague, please return just the value in nM, with no unit written.

# annotated cases, reported IC50 shown
COc1cc2nc(N(C)C)nc(N[C@H](C)c3cccc4ccccc34)c2cc1OC = 800
COc1cc2nc(C)nc(NC(C)c3ccc(-c4ccccc4CCN)s3)c2cc1OC (stereo unspecified) = 51
CCN(CC)Cc1ccccc1-c1ccc(C(C)Nc2nc(C)nc3cc(OC)c(OC)cc23)s1 (stereo unspecified) = 170
COc1cc2nc(C)nc(NC(C)c3ccc(-c4ccccc4C(C)(C)N)s3)c2cc1OC (stereo unspecified) = 400
COc1cc2ccnc(N[C@H](C)c3cccc4ccccc34)c2cc1OC = 12200
COc1cc2nc(C)nc(NC(C)c3ccc(-c4cnc5n4CCC5)s3)c2cc1OC (stereo unspecified) = 400

Item: COc1cc2nc(C)nc(NC(C)c3ccc(-c4ccccc4[C@H](C)N)s3)c2cc1OC (stereo partly specified) | IC50: 230

Sure, the documented IC50 for COc1cc2nc(C)nc(NC(C)c3ccc(-c4ccccc4[C@@H](C)N)s3)c2cc1OC (stereo partly specified) is 200

COc1cc2nc(C)nc(NC(C)c3ccc(-c4ccc(F)cc4CNC(C)=O)s3)c2cc1OC (stereo unspecified) yielded IC50 of 590

The reported value for COc1cc2nc(C)nc(NC(C)c3ccc(-c4ccccc4S(C)(=O)=O)s3)c2cc1OC (stereo unspecified) in terms of IC50 is 1410

###

Molecular target: GTPase KRas (Homo sapiens, UniProt P01116, G12C)
Assay: Inhibition of N-terminal GST-tagged recombinant human KRAS G12C mutant (1 to 169 residues) expressed in Escherichia coli assessed as reduction in intrinsic GTP exchange preincubated for 10 mins with KRAS followed by SOS1 addition measured after 30 mins in presence of EDA-GTP-DY-647P1 by HTRF analysis
property: IC50

COc1cc2ncnc(N[C@H](C)c3cccc4ccccc34)c2cc1OC = > 20 µM

Now examine the next entry.
Case COc1cc2nc(C)nc(NC(C)c3ccc(-c4cnc5n4CCC5)s3)c2cc1OC (configuration not stated) , GTPase KRas (Homo sapiens, UniProt P01116, G12C), IC50 recorded as > 20 µM

###

Target: Son of sevenless homolog 1 (Homo sapiens, UniProt Q07889)
Sequence (Q07889 whole entry): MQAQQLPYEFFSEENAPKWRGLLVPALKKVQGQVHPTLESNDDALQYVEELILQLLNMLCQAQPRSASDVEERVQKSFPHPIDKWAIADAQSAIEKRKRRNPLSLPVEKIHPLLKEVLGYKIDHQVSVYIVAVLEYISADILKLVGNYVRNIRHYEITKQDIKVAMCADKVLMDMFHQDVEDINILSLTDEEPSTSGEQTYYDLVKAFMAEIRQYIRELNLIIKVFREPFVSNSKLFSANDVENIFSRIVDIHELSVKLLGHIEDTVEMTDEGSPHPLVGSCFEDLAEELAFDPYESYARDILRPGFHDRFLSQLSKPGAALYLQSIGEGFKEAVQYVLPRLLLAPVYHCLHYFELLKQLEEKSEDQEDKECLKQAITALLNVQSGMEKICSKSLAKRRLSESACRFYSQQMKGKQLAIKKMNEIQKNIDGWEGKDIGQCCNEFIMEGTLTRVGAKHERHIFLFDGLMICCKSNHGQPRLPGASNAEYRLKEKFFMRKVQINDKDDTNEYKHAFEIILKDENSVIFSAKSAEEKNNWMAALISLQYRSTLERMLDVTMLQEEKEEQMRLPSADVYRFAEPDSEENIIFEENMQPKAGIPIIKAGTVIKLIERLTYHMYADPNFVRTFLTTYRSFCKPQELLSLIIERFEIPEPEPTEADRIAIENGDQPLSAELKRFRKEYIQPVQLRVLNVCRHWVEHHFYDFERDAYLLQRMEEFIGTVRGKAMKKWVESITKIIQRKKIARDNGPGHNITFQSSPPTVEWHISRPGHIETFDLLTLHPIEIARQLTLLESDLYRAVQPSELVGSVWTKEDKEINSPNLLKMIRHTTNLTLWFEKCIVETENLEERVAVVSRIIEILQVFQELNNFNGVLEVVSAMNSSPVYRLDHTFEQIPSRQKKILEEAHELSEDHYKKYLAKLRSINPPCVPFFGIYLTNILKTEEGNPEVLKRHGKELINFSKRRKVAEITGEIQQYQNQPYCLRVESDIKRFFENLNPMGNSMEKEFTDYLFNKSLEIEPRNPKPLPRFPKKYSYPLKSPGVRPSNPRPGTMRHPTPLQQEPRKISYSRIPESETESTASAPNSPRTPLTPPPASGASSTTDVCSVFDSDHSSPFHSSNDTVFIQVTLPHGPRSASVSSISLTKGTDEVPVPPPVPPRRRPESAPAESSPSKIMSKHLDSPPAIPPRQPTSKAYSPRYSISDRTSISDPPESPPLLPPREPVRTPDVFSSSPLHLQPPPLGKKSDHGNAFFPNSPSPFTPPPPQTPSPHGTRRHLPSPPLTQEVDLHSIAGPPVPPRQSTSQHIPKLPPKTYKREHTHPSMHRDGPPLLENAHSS
Assay: Inhibition of N-terminal His10-tagged wild-type recombinant human SOS1 catalytic domain (564 to 1049 residues) expressed in Escherichia coli assessed as reduction in wild-type KRAS activation preincubated for 10 mins with KRAS followed by SOS1 addition measured after 30 mins in presence of EDA-GTP-DY-647P1 by HTRF analysis
property: IC50 (nM)
Express the result in nM but write the number alone.

IC50 in this record for COc1cc2nc(C)nc(NC(C)c3ccc(-c4cnc5n4CCC5)s3)c2cc1OC (stereo unspecified) : 550

###

Target: UniProtKB Q07889
Assay: Inhibition of N-terminal His10-tagged wild-type recombinant human SOS1 catalytic domain (564 to 1049 residues) expressed in Escherichia coli assessed as reduction in KRAS G12C mutant activation preincubated for 10 mins with KRAS followed by SOS1 addition measured after 30 mins in presence of EDA-GTP-DY-647P1 by HTRF analysis
property: IC50

Reported IC50 of COc1cc2nc(C)nc(NC(C)c3ccc(-c4cnc5n4CCC5)s3)c2cc1OC (stereo unspecified) : 930 nM

###

Biological target: SOS1-KRAS (Homo sapiens)
Experiment: Inhibition of N-terminal GST-tagged recombinant human KRAS G12C mutant (1 to 169 residues) expressed in Escherichia coli/N-terminal His10-tagged wild-type recombinant human SOS1 catalytic domain (564 to 1049 residues) expressed in Escherichia coli protein-protein interaction preincubated for 2 mins with KRAS followed by SOS1 addition measured after 60 mins in presence of anti-6His-XL665 by HTRF analysis
Each entry below carries its reported IC50.
Enter your answer as a number in nM; do not include the unit.

Answered examples (3):
COc1cc2nc(C)nc(N[C@H](C)c3cccc(Br)c3)c2cc1OC = 170
COc1cc2nc(C)nc(NC(C)c3ccc(-c4ccccc4C#N)s3)c2cc1OC (stereo not given) = 590
COc1cc2nc(C(F)(F)F)nc(N[C@H](C)c3cccc4ccccc34)c2cc1OC = 1450

IC50 on SOS1-KRAS (Homo sapiens) for COc1cc2nc(C)nc(NC(C)c3ccc(-c4ccccc4CO)s3)c2cc1OC (stereo not given) is 280

Measured on SOS1-KRAS (Homo sapiens), CNCc1ccccc1-c1ccc(C(C)Nc2nc(C)nc3cc(OC)c(OC)cc23)s1 (stereo not given) has a documented IC50 of 41

Test item COc1cc2nc(C)nc(NC(C)c3ccc(-c4ccccc4CN(C)C)s3)c2cc1OC (stereo not given) ; SOS1-KRAS (Homo sapiens); reported IC50 was 40
